Value source: ChEMBL document CHEMBL2434876

assay: Oral bioavailability in Swiss Albino mouse at 50 mg/kg by LC-MS/MS analysis; assay type: ADME, organism-based; conditions: in vivo

{"columns": ["sample smiles", "bioavailability"],
 "data": [
  ["OC/C=C/c1cc(N2CCOCC2)c2cc(Cl)c(F)cc2n1", "0.7%"]
]}

====

experiment: Elimination half life in Swiss Albino mouse at 10 mg/kg, iv by LC-MS/MS analysis; assay type: ADME, organism-based; parameters: dose 10 mg/kg, route intravenous; settings: in vivo, read-out: beta t1/2 (converted)

{"columns": ["sample smiles", "half-life (min)"],
 "data": [
  ["OC/C=C/c1cc(N2CCOCC2)c2cc(Cl)c(F)cc2n1", 28.2]
]}

====

assay: Drug metabolism in mouse liver microsomes at 1 uM after 30 mins by LC-MS/MS analysis; format: ADME, Microsome; details: read-out: Drug metabolism
Hi! Just check whether metabolised at 0.5 h, 1 µM is below 60%. Below gives class 1, equal or above gives class 0.

{"columns": ["compound", "class name"],
 "data": [
  ["OC/C=C/c1ccc2ccccc2n1", "class 0"],
  ["OC/C=C/c1cc(-c2ccc(F)cc2)c2cc(Cl)c(F)cc2n1", "class 1"],
  ["COc1cc2nc(/C=C/CO)cc(N3CCOCC3)c2cc1Cl", "class 1"],
  ["COc1ccc(-c2cc(/C=C/CO)nc3cc(F)c(Cl)cc23)cc1", "class 1"],
  ["OC/C=C/c1cc(Oc2ccc(F)cc2)c2cc(Cl)ccc2n1", "class 1"],
  ["OCC#Cc1ccc2ccccc2n1", "class 0"],
  ["CC1CN(c2cc(/C=C/CO)nc3cc(F)c(Cl)cc23)CC(C)O1 (stereo unspecified)", "class 1"],
  ["OC/C=C/c1cc(N2CCOCC2)c2cc(Cl)ccc2n1", "class 1"],
  ["OC/C=C/c1cc(-c2ccc(F)cc2)c2cc(Cl)ccc2n1", "class 0"],
  ["N#C/C=C/c1ccc2ccccc2n1", "class 0"],
  ["CCCc1ccc2ccccc2n1", "class 0"],
  ["COc1ccc(-c2cc(/C=C/CO)nc3ccc(Cl)cc23)cc1", "class 1"],
  ["CN1CCN(c2cc(/C=C/CO)nc3cc(F)c(Cl)cc23)CC1", "class 1"],
  ["FC/C=C/c1ccc2ccccc2n1", "class 0"],
  ["OC/C=C/c1cc(N2CCOCC2)c2cc(Cl)c(F)cc2n1", "class 1"],
  ["OC/C=C/c1cc(N2CCCCC2)c2cc(Cl)c(F)cc2n1", "class 0"],
  ["OC/C=C/c1ccc2cc(Cl)ccc2n1", "class 0"],
  ["OC/C=C/c1cc(-c2cccc(F)c2)c2cc(Cl)c(F)cc2n1", "class 1"],
  ["NC(=O)/C=C/c1ccc2ccccc2n1", "class 0"],
  ["OC/C=C/c1ccc2cc(F)ccc2n1", "class 0"]
]}

====

metabolised at 0.5 h, 1 µM values by entry
assay: Drug metabolism in human liver microsomes at 1 uM after 30 mins by LC-MS/MS analysis; format: ADME, Microsome; details: read-out: Drug metabolism

{"columns": ["sample smiles", "metabolised at 0.5 h, 1 µM, %"],
 "data": [
  ["OC/C=C/c1cc(N2CCCCC2)c2cc(Cl)c(F)cc2n1", 39],
  ["OC/C=C/c1cc(N2CCOCC2)c2cc(Cl)ccc2n1", 43],
  ["CCCc1ccc2ccccc2n1", 98],
  ["OC/C=C/c1cc(N2CCOCC2)c2cc(Cl)c(F)cc2n1", 35],
  ["CN1CCN(c2cc(/C=C/CO)nc3cc(F)c(Cl)cc23)CC1", 27],
  ["COc1cc2nc(/C=C/CO)cc(N3CCOCC3)c2cc1Cl", 31],
  ["N#C/C=C/c1ccc2ccccc2n1", 100],
  ["COc1ccc(-c2cc(/C=C/CO)nc3cc(F)c(Cl)cc23)cc1", 14],
  ["OC/C=C/c1cc(-c2ccc(F)cc2)c2cc(Cl)c(F)cc2n1", 25],
  ["FC/C=C/c1ccc2ccccc2n1", 100],
  ["OC/C=C/c1cc(Oc2ccc(F)cc2)c2cc(Cl)ccc2n1", 27],
  ["OC/C=C/c1cc(-c2ccc(F)cc2)c2cc(Cl)ccc2n1", 25],
  ["OC/C=C/c1ccc2cc(Cl)c(F)cc2n1", 50],
  ["OC/C=C/c1ccc2cc(F)ccc2n1", 76]
]}
